# ASSAYED_SYSTEM: LsrK (Salmonella typhimurium, UniProt Q8ZKQ6)
# Sequence (Q8ZKQ6 whole entry): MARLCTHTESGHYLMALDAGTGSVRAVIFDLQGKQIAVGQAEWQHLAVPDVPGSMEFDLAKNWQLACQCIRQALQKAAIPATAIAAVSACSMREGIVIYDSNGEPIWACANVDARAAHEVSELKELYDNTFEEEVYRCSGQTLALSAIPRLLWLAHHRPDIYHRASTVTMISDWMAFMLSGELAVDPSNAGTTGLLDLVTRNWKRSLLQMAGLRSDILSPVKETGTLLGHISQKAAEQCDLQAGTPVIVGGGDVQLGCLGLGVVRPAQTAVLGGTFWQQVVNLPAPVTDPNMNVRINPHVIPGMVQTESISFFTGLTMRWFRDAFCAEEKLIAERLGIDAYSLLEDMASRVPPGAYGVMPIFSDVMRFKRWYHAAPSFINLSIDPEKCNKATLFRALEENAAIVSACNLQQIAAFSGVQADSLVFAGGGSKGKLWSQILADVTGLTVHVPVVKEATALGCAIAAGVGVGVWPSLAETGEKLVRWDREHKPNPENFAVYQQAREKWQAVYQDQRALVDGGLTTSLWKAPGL
# ASSAY_INFO: biochemical
# Format: biochemical, S. typhimurium
Assignment: determine reported inhibition at 50 µM for the given compounds.
One number for each entry, in %.

Recorded inhibition at 50 µM, per entry:
| COMPOUND | inhibition at 50 µM / % |
| --- | --- |
| Oc1ccc(Cl)cc1Cc1cc(Cl)ccc1O [DICHLOROPHENE] | 1 |
| C=C1C(N)CC2CC1C2(C)C (stereo not drawn) [3-AMINO-beta-PINENE] | 1 |
| Cc1cccc(C(=O)O)c1O [HYDROXYTOLUIC ACID] | 1 |

List reported inhibition at 50 µM for each of these compounds:
1. COc1ccc2[nH]c([S+]([O-])Cc3ncc(C)c(OC)c3C)nc2c1 (stereo not shown) [OMEPRAZOLE]
2. O=C(O)c1ccccc1 [BENZOIC ACID]

*A*
6
3

* * *

# ASSAYED_SYSTEM: LsrK (Salmonella typhimurium, UniProt Q8ZKQ6)
# ASSAY_INFO: biochemical
# Type: biochemical, S. typhimurium
ENDPOINT: inhibition at 50 µM (%)
Give bare numbers, in %.

Recorded inhibition at 50 µM, per entry:
| COMPOUND | inhibition at 50 µM / % |
| --- | --- |
| Cc1cc(O)c(C=O)c2c1C(=O)Oc1c(C)c(O)c3c(c1O2)C(O)OC3=O (stereo not drawn) [[…]] | 145 |
| CN(C)[C@@H]1C(O)=C(C(=O)NCN2CCCC2)C(=O)[C@@]2(O)C(O)=C3C(=O)c4c(O)cccc4[C@@](C)(O)[C@H]3C[C@@H]12 [ROLITETRACYCLINE] | 5 |

*Q* Enter recorded inhibition at 50 µM with LsrK (Salmonella typhimurium, UniProt Q8ZKQ6) for CC[C@H]1OC(=O)[C@H](C)C(=O)[C@H](C)[C@@H](O[C@@H]2O[C@H](C)C[C@H](N(C)C)[C@H]2O)[C@](C)(OC)C[C@@H](C)C(=O)[C@H](C)[C@H]2N(CCCCn3cnc(-c4cccnc4)c3)C(=O)O[C@]12C [TELITHROMYCIN] here.
*A* 7

* * *

# ASSAYED_SYSTEM: LsrK (Salmonella typhimurium, UniProt Q8ZKQ6)
# ASSAY_INFO: biochemical
# Type: biochemical, S. typhimurium
ENDPOINT: inhibition at 50 µM (%)
Answers are plain numbers, in %.

List reported inhibition at 50 µM for each of these molecules:
1. Cc1c(OCC(F)(F)F)ccnc1C[S+]([O-])c1nc2ccccc2[nH]1 (centres unmarked)
2. CCCNC(=O)NS(=O)(=O)c1ccc(Cl)cc1 [CHLORPROPAMIDE]

*A*
1. 33
2. 1

* * *

Assignment: determine reported inhibition at 50 µM for the given molecules.
# ASSAYED_SYSTEM: UniProt Q8ZKQ6
# ASSAY_INFO: biochemical
# Assay type: biochemical, S. typhimurium
Where a name gives a salt, the structure may show the parent alone.
Numbers only, in %.

Recorded inhibition at 50 µM, per entry:
| MOLECULE | inhibition at 50 µM / % |
| --- | --- |
| OC(CCN1CCCCC1)(c1ccccc1)c1ccccc1 [PRIDINOL METHANESULFONATE] | 1 |
| C[C@H]1C[C@H]2[C@@H]3CCC4=CC(=O)C=C[C@]4(C)[C@@]3(F)[C@@H](O)C[C@]2(C)[C@@]1(O)C(=O)CO [BETAMETHASONE] | 1 |
| CC[C@@H](CO)NC(=O)[C@@H]1C=C2c3cccc4[nH]cc(c34)C[C@H]2N(C)C1 [METHYLERGONOVINE MALEATE] | 1 |
| CC(=O)O[C@]1(C(C)=O)CC[C@H]2[C@@H]3C=C(Cl)C4=CC(=O)CC[C@]4(C)[C@H]3CC[C@@]21C [CHLORMADINONE ACETATE] | 1 |
| NCCc1cc(O)c(O)cc1O [OXIDOPAMINE HYDROCHLORIDE] | 117 |

List reported inhibition at 50 µM for each of these molecules:
1. CC(=O)c1cc2ccccc2oc1=O [3-ACETYLCOUMARIN]
2. C[C@H]1[C@H](C)CC[C@]2(C(=O)O)CC[C@]3(C)C(=CC[C@@H]4[C@@]5(C)C[C@@H](O)[C@H](O)[C@@](C)(CO)[C@@H]5CC[C@]43C)[C@H]12 [ASIATIC ACID]

*A*
1. 0
2. 2

* * *

# ASSAYED_SYSTEM: UniProt Q8ZKQ6
# ASSAY_INFO: biochemical
# Assay type: biochemical, S. typhimurium
Counter-ions that a name gives are not always drawn.
Assignment: determine reported pIC50 for the given molecules.
One number for each entry, as −log10 of the molar value.

Recorded pIC50, per entry:
| MOLECULE | ASSAYED_SYSTEM | pIC50 |
| --- | --- | --- |
| COc1ccc(CN(CCN(C)C)c2ncccn2)cc1 [THONZYLAMINE HYDROCHLORIDE, reference compound] | UniProt Q8ZKQ6 | 4.62 |
| C=CC1=C(C)c2cc3[nH]c(cc4nc(cc5[nH]c(cc1n2)c(C)c5CCC(=O)O)C(CCC(=O)O)=C4C)c(C)c3C=C [PROTOPORPHYRIN IX] | UniProt Q8ZKQ6 | 5.05 |
| COc1cc(C)c2c(c1C=O)Oc1c(c(C)c(O)c3c1C(O)OC3=O)OC2=O (stereo not shown) [STICTIC ACID] | UniProt Q8ZKQ6 | 5.52 |
| N#Cc1c(Cl)c(Cl)c(Cl)c(C#N)c1Cl [TETRACHLOROISOPHTHALONITRILE] | UniProt Q8ZKQ6 | 5.05 |
| O=C1C=CC(=C(c2ccc(O)cc2)c2ccc(O)cc2)C=C1 [ROSOLIC ACID] | UniProt Q8ZKQ6 | 6.00 |

List reported pIC50 for each of these molecules:
1. Cc1cc(O)c(C=O)c2c1C(=O)Oc1c(COC(=O)/C=C/C(=O)O)c(O)c(C(=O)O)c(C)c1O2 [FUMARPRO[…]]
2. CC(=O)O[C@H]1C[C@@H](OC(C)=O)C(C)(C)[C@@H]2CC(=O)[C@]3(C)[C@H](CC[C@@]4(C)[C@H](c5ccoc5)OC(=O)[C@H]5O[C@]543)[C@@]12C [7-DEACETOXY-7-OXOKHIVORIN]

*A*
1: 5.15; 2: 5.52

* * *

# ASSAYED_SYSTEM: LsrK (Salmonella typhimurium, UniProt Q8ZKQ6)
# ASSAY_INFO: biochemical
# Assay type: biochemical, S. typhimurium
Where a name gives a salt, the structure may show the parent alone.
// not met strictly below 20% in inhibition at 50 µM; met otherwise

*Q* Threshold query (inhibition at 50 µM >= 20%) on O=C1C=C2CC3(O)COc4cc(O)ccc4C3=C2C=C1O (centres unmarked) [BRAZILEIN]
*A* met

*Q* Threshold query (inhibition at 50 µM >= 20%) on COc1ccc([C@@H]2CC(=O)c3c(O)cc(O)cc3O2)cc1O [HESPERETIN]
*A* not met

*Q* Threshold query (inhibition at 50 µM >= 20%) on CCOc1ccc(NC(=O)CC(C)O)cc1 (centres unmarked) [BUCETIN]
*A* not met

*Q* Threshold query (inhibition at 50 µM >= 20%) on Cc1ccc(Cl)c(Nc2ccccc2C(=O)O)c1Cl [MECLOFENAMATE SODIUM]
*A* not met

*Q* Threshold query (inhibition at 50 µM >= 20%) on CC(=O)Oc1ccc(/C=C/c2cc(OC(C)=O)cc(OC(C)=O)c2)cc1 [TRIACETYLRESVERATROL]
*A* not met

*Q* Threshold query (inhibition at 50 µM >= 20%) on C=C1c2cccc(O)c2C(=O)C2=C(O)[C@]3(O)C(=O)C(C(N)=O)=C(O)[C@@H](N(C)C)[C@@H]3[C@@H](O)[C@H]12 [METHACYCLINE HYDROCHLORIDE]
*A* met

*Q* Threshold query (inhibition at 50 µM >= 20%) on O=C(O)c1cc(O)c(=O)c2c(O)c(O)ccc2c1 [7-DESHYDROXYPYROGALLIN-4-CARBOXYLIC ACID]
*A* met

*Q* Threshold query (inhibition at 50 µM >= 20%) on `C=CC1=C(C(=O)O)N2C(=O)[C@@H](NC(=O)/C(=N\O)c3csc(N)n3)[C@H]2SC1`
*A* not met

* * *

# ASSAYED_SYSTEM: LsrK (Salmonella typhimurium)
# ASSAY_INFO: biochemical
# Type: biochemical, S. typhimurium
Counter-ions that a name gives are not always drawn.
Assignment: determine reported inhibition at 50 µM for the given compounds.
Mention the unit after the number when you answer.

| COMPOUND | ASSAYED_SYSTEM | ENDPOINT_RESULT |
| --- | --- | --- |
| C[C@H]1c2cccc(O)c2C(=O)C2=C(O)[C@]3(O)C(=O)C(C(N)=O)=C(O)[C@@H](N(C)C)[C@@H]3[C@@H](O)[C@@H]21 [DOXYCYCLINE HYDROCHLORIDE] | LsrK (Salmonella typhimurium) | 106% |

List reported inhibition at 50 µM for each of these compounds:
1. C=C1CCC2C(CC2(C)C)C(=O)CCC1O (stereo not drawn) [ISOKOBUSONE]
2. Oc1ccc2c(c1)OC[C@]1(O)Cc3cc(O)c(O)cc3[C@H]21 [BRAZILIN]
3. C=CCCCCCCCCC(=O)O [UNDECYLENIC ACID]

*A*
1. 3%
2. 133%
3. 1%

List reported inhibition at 50 µM for each of these compounds:
1. CNc1ccccc1C(=O)O
2. O=C1OC2(c3ccc(O)cc3Oc3cc(O)ccc32)c2ccccc21 [FLUORESCEIN]
3. CN(C)CCN(Cc1ccccc1)c1ccccn1 [TRIPELENNAMINE CITRATE]

*A*
1: 1%; 2: 1%; 3: 2%
